Data credit: ChEMBL document CHEMBL2040790

Test system: La Crosse virus
protocol: Antiviral activity against La Crosse virus infected in african green monkey Vero cells assessed as inhibition of virus-induced cytopathic effect by fluorometric analysis
Assay type: functional, organism-based
Listed below: EC50 values for each entry.
// units = µM; emit number, no label

# annotated cases, reported EC50 shown
| smiles-structure | recorded-number |
| --- | --- |
| CC(C)(C)c1ccc(C(=O)NC(=S)Nc2ccccc2[N+](=O)[O-])cc1 | 3.7 |
| Cc1cccc(NC(=S)NC(=O)c2ccc(C(C)(C)C)cc2)c1C | 2.59 |
| COc1cc(NC(=S)NC(=N)c2ccc(C(C)(C)C)cc2)ccc1NC(=O)c1ccccc1Cl | 3.01 |
| CNc1ccc(NC(=S)NC(=O)c2ccc(C(C)(C)C)cc2)c(Cl)c1.Cl | 0.24 |
| COc1cc(NC(=S)NC(=O)c2ccc(C(C)(C)C)cc2)ccc1NC(N)=O | 4.86 |

Please examine the following record next.
Query: Please look up its EC50: `CC(C)(C)c1ccc(C(=O)NC(=S)Nc2ccc(NC(=O)c3ccccc3Cl)c(O)c2)cc1`
Result: 0.21

---

protocol: Solubility of the compound in simulated gastric fluid
Type: physicochemical
condition: simulated gastric fluid; read-out: solubility
property: solubility (µg/mL)
// units = µg/mL; emit number, no label

Query: Please look up its solubility: `CNc1ccc(NC(=S)NC(=O)c2ccc(C(C)(C)C)cc2)c(Cl)c1.Cl`
Result: 3.2

---

Listed below: EC50 values for each entry.
Tested on: La Crosse virus
protocol: Antiviral activity against La Crosse virus infected in african green monkey Vero cells assessed as inhibition of virus-induced cytopathic effect by fluorometric analysis
Format: functional, organism-based
// units = nM; emit number, no label

# annotated cases, reported EC50 shown
| smiles-structure | system-under-test | recorded-number |
| --- | --- | --- |
| Cc1ccc(Cl)c(NC(=S)NC(=O)c2ccc(C(C)(C)C)cc2)c1 | La Crosse virus | 1670 |
| Cc1cccc(NC(=S)NC(=O)c2ccc(C(C)(C)C)cc2)c1Cl | La Crosse virus | 1170 |
| CC(C)(C)c1ccc(C(=O)NC(=S)Nc2ccc(NC(=O)c3ccccc3)cc2)cc1 | La Crosse virus | 150 |
| Cc1c(Cl)cccc1NC(=S)NC(=O)c1ccc(C(C)(C)C)cc1 | La Crosse virus | 919 |

Query: Please look up its EC50: `Cc1cccc(Cl)c1NC(=S)NC(=O)c1ccc(C(C)(C)C)cc1`
Result: 940

---

Tested on: La Crosse virus
protocol: Antiviral activity against La Crosse virus infected in african green monkey Vero cells assessed as inhibition of virus-induced cytopathic effect by fluorometric analysis
Format: functional, organism-based
Listed below: pEC50 values for each entry.
Remember the convention: pEC50 equals -log10 of concentration in molar.

# annotated cases, reported pEC50 shown
| smiles-structure | pEC50 |
| --- | --- |
| Cc1ccc(NC(=S)NC(=O)c2ccc(C(C)(C)C)cc2)cc1 | 5.31 |
| COc1cc(NC(=S)NC(=O)c2ccc(C(C)(C)C)cc2)ccc1NC(=N)c1ccccc1Cl | 5.69 |
| CC(C)(C)c1ccc(C(=O)NC(=S)Nc2ccc(N)cc2Cl)cc1 | 6.12 |
| CNc1ccc(NC(=S)NC(=O)c2ccc(C(C)(C)C)cc2)cc1 | 5.84 |
| CC(C)(C)c1ccc(C(=O)NC(=S)Nc2ccc(Nc3ccncc3)cc2)cc1 | 5.11 |

Query: Please look up its pEC50: `CC(C)(C)c1ccc(C(=O)NC(=S)Nc2cc(Cl)ccc2Cl)cc1`
Result: 5.61

Query: Please look up its pEC50: `CC(C)(C)c1ccc(C(=O)NC(=S)Nc2ccccc2Cl)cc1`
Result: 6.55

---

Tested on: La Crosse virus
protocol: Antiviral activity against La Crosse virus infected in african green monkey Vero cells assessed as inhibition of virus-induced cytopathic effect by fluorometric analysis
Assay type: functional, organism-based
pEC50: −log10 of the molar value.
property: pEC50

# annotated cases, reported pEC50 shown
| smiles-structure | pEC50 |
| --- | --- |
| COc1cc(NC(=S)NC(=O)c2ccc(C(C)(C)C)cc2)ccc1NC(=O)c1ccc(C(=O)O)cc1 | < 4.60 |
| CC(C)(C)c1ccc(C(=O)NC(=S)Nc2ccc(S(=O)(=O)N3CCCCC3)cc2)cc1 | < 4.60 |
| COc1cc(NC(=S)NC(=O)c2ccc(C(C)(C)C)cc2)ccc1NC(=O)c1c[nH]cn1 | < 4.60 |
| CC(C)(C)c1ccc(C(=O)NC(=S)Nc2ccc(CN3CCCCC3)cc2)cc1 | < 4.60 |
| CC(C)(C)c1ccc(C(=O)NC(=S)Nc2ccc(Nc3ccccc3)cc2)cc1 | 5.77 |
| CC(C)(C)c1ccc(C(=O)NC(=S)Nc2cccc(N)c2)cc1 | 5.66 |
| CC(C)(C)c1ccc(C(=O)NC(=S)Nc2ccccc2C(=O)O)cc1 | < 4.60 |
| CC(C)(C)c1ccc(C(=O)NC(=S)Nc2ccc(Nc3ccccn3)cc2)cc1 | < 4.60 |

Query: Please look up its pEC50: `COc1cc(NC(=S)NC(=O)c2ccc(C(C)(C)C)cc2)ccc1NC(=S)c1ccccc1Cl`
Result: 6.19

Query: Please look up its pEC50: `CN(C)c1ccc(NC(=S)NC(=O)c2ccc(C(C)(C)C)cc2)c(Cl)c1.Cl`
Result: 5.81

Query: Please look up its pEC50: `CC(C)(C)c1ccc(C(=O)NC(=S)Nc2ccc(NC(=O)c3ccccc3Cl)c(N)c2)cc1`
Result: 7.30

Query: Please look up its pEC50: `COc1cc(NC(=S)NC(=O)c2ccc(C(C)(C)C)cc2)ccc1NC(=O)c1ncc[nH]1`
Result: < 4.60

Query: Please look up its pEC50: `CC(C)(C)c1ccc(C(=O)NC(=S)Nc2cc(C(C)(C)C)ccc2O)cc1`
Result: 5.47

Query: Please look up its pEC50: `CC(C)(C)c1ccc(C(=O)NC(=S)Nc2ccc(Cl)cc2Cl)cc1`
Result: < 4.60

Query: Please look up its pEC50: `COc1ccc(-c2csc(NC(=S)NC(=O)c3ccc(C(C)(C)C)cc3)n2)cc1OC`
Result: < 4.60

---

protocol: Solubility of the compound in Caco2 transport buffer
Assay type: physicochemical, Caco-2
property: solubility (µg/mL)
// units = µg/mL; emit number, no label

Query: Please look up its solubility: `CNc1ccc(NC(=S)NC(=O)c2ccc(C(C)(C)C)cc2)c(Cl)c1.Cl`
Result: 0.1

---

System: La Crosse virus
protocol: Antiviral activity against La Crosse virus infected in african green monkey Vero cells assessed as inhibition of virus-induced cytopathic effect by fluorometric analysis
Assay type: functional, organism-based
property: EC50

| smiles-structure | result |
| --- | --- |
| CC(C)(C)c1ccc(C(=O)NC(=S)Nc2cccc(CN)c2)cc1 | > 25 µM |
| Cc1ccc(C)c(NC(=S)NC(=O)c2ccc(C(C)(C)C)cc2)c1 | > 25 µM |
| CC(C)(C)c1ccc(C(=O)NC(=S)Nc2ccc(Cl)cc2)cc1 | > 25 µM |
| COc1cc(NC(=S)NC(=O)c2ccc(C(C)(C)C)cc2)ccc1NC(=O)c1ccc(N)cc1 | > 25 µM |
| CC(C)(C)c1ccc(C(=O)NC(=S)Nc2ccc([N+](=O)[O-])cc2)cc1 | > 25 µM |

Query: Query EC50 on La Crosse virus for `COC(=O)c1cnc(NC(=S)NC(=O)c2ccc(C(C)(C)C)cc2)s1`
Result: > 25 µM

Query: Query EC50 on La Crosse virus for `Cc1ccc(O)c(NC(=S)NC(=O)c2ccc(C(C)(C)C)cc2)c1`
Result: > 25 µM

Query: Query EC50 on La Crosse virus for `Cc1cc(C)cc(NC(=S)NC(=O)c2ccc(C(C)(C)C)cc2)c1`
Result: 4.43 µM

Query: Query EC50 on La Crosse virus for `CC(C)(C)c1ccc(C(=O)NC(=S)Nc2ccccn2)cc1`
Result: > 25 µM

Query: Query EC50 on La Crosse virus for `CCS/C(=N\C(=O)c1ccc(C(C)(C)C)cc1)Nc1ccccc1Cl`
Result: 0.51 µM

Query: Query EC50 on La Crosse virus for `Cc1cccc(NC(=S)NC(=O)c2ccc(C(C)(C)C)cc2)c1`
Result: 1.33 µM

Query: Query EC50 on La Crosse virus for `COc1cc(NC(=S)NC(=O)c2ccc(C(C)(C)C)cc2)ccc1NC(=O)c1ccccc1Cl`
Result: 0.27 µM

Query: Query EC50 on La Crosse virus for `COc1cc(NC(=S)NC(=O)c2ccc(C(C)(C)C)cc2)ccc1NC(C)=O`
Result: 1.35 µM

Query: Query EC50 on La Crosse virus for `COc1cc(NC(=S)NC(=O)c2ccc(C(C)(C)C)cc2)ccc1NC(=O)c1cnccn1`
Result: > 25 µM

---

Test system: La Crosse virus
protocol: Antiviral activity against La Crosse virus infected in african green monkey Vero cells assessed as inhibition of virus-induced cytopathic effect by fluorometric analysis
Format: functional, organism-based
Listed below: EC50 values for each entry.

# annotated cases, reported EC50 shown
| smiles-structure | result |
| --- | --- |
| CC(=O)N1CCN(c2ccc(NC(=S)NC(=O)c3ccc(C(C)(C)C)cc3)cc2)CC1 | > 25 µM |
| CC(C)(C)c1ccc(C(=O)NC(=S)Nc2cc(C(F)(F)F)ccc2Cl)cc1 | 0.6 µM |
| COc1cc(NC(=S)NC(=O)c2ccc(C(C)(C)C)cc2)ccc1NC(=O)CCC(=O)O | > 25 µM |

Query: Please look up its EC50: `Cc1ccc(NC(=S)NC(=O)c2ccc(C(C)(C)C)cc2)cc1C`
Result: 1.23 µM

Query: Please look up its EC50: `COc1cc(NC(=S)NC(=O)c2ccc(C(C)(C)C)cc2)ccc1N`
Result: 1.69 µM

Query: Please look up its EC50: `COc1cc(NC(=S)NC(=O)c2ccc(C(C)(C)C)cc2)ccc1NC(=O)CC(=O)O`
Result: > 25 µM

Query: Please look up its EC50: `CC(C)(C)c1ccc(C(=O)NC(=S)Nc2ccc(N)c(N)c2)cc1`
Result: > 25 µM

Query: Please look up its EC50: `CC(C)(C)c1ccc(C(=O)NC(=S)Nc2ccc(N)cc2)cc1`
Result: 2.27 µM

Query: Please look up its EC50: `COc1cc(NC(=S)NC(=O)c2ccc(C(C)(C)C)cc2)ccc1NC(=O)CCCCN(C)C`
Result: > 25 µM

Query: Please look up its EC50: `COc1ccc(NC(=S)NC(=O)c2ccc(C(C)(C)C)cc2)cc1`
Result: > 25 µM

Query: Please look up its EC50: `COc1cc(NC(=S)NC(=O)c2ccc(C(C)(C)C)cc2)ccc1NC(=O)CCN(C)C`
Result: > 25 µM

Query: Please look up its EC50: `CC(C)(C)c1ccc(C(=O)NC(=S)Nc2ccc(CN3CCOCC3)cc2)cc1`
Result: > 25 µM
